// data source = paper PMC12508576

- Test system: hiPSCs trilineage differentiation (cardiomyocytes, hepatocytes, neural rosette-like cells)
- condition.context: human
This listing pairs compounds with measured ReproTracker results LOAEL.

Known results for compounds:
NC(=O)c1ncn([C@@H]2O[C@H](CO)[C@@H](O)[C@H]2O)n1 :: ≤1 µM
CC1=C(/C=C/C(C)=C/C=C/C(C)=C/C(=O)O)C(C)(C)CCC1 [Tretinoin (Retinoic acid)] :: ≤0.3 µM
CCCCCCCCc1ccc(CCC(N)(CO)CO)cc1 :: ≤0.25 µM
Cc1nc(Nc2ncc(C(=O)Nc3c(C)cccc3Cl)s2)cc(N2CCN(CCO)CC2)n1 :: 0.00003 to 0.00013 µM
CC1=C(/C=C/C(C)=C/C=C/C(C)=C\C(=O)O)C(C)(C)CCC1 :: ≤0.0041 µM

[Q] Param item = C=CC[C@@H]1/C=C(\C)C[C@H](C)C[C@H](OC)[C@H]2O[C@@](O)(C(=O)C(=O)N3CCCC[C@H]3C(=O)O[C@H](/C(C)=C/[C@@H]3CC[C@@H](O)[C@H](OC)C3)[C@H](C)[C@@H](O)CC1=O)[C@H](C)C[C@@H]2OC ; retrieve measured ReproTracker results LOAEL.
[A] ≤0.2 µM
